# Assay Method Text: growth inhibition of non-replicating M. tuberculosis (AID 488890);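 also: plate controls were DMSO cells for no effect and high antibiotic wells for full effect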
# Condition Context: Mycobacterium tuberculosis non-replicating, at 25 µM, stronger effect = higher value
Among all 320,000 compounds or so, about 1,300 (0.41%) were called active. About 3% were inconclusive and are not listed. A selection follows. Entries with a potency or affinity are not part of this list. Peptide text beside a SMILES is read from it. * marks the point of attachment. Boc = CC(C)(C)OC(=O)*; OtBu = CC(C)(C)O*
Reported inhibition values follow for various compounds

Compound: CN1CCN(C(=O)COc2ccc3ccccc3c2Br)CC1
inhibition, %: 37.4
//
Compound: CC(NC(=O)C(CC(=O)OC(C)(C)C)NC(=O)OC(C)(C)C)C(N)=O (configuration not stated) (Boc-Asp(OtBu)-Ala-NH2; configuration not given here)
inhibition, %: -0.24
//
Compound: COc1ccc(C2=NOC(Cn3nc(-c4ccccc4)cc3C(=O)NCc3cccc(Br)c3)C2)cc1 (configuration not stated)
inhibition, %: -12.8
//
Compound: O=c1cc([O-])[n+]2c3n1CCCN3CCC2
inhibition, %: -14.7
//
Compound: O=C(CCNC(=O)Cn1ccc2ccccc2c1=O)NCCN1CCc2ccccc2C1
inhibition, %: 19.7
//
Compound: O=C(Oc1c(Br)cc(Br)c2cccnc12)N1CCCCC1
inhibition, %: 43.3
//
Compound: COc1ccc(C(CNC(=O)c2ccccc2SC)N(C)C)cc1 (configuration not stated)
inhibition, %: -4.14

====

Listed here are compounds together with their documented inhibition.
# Assay Method Text: growth inhibition of non-replicating M. tuberculosis (AID 488890)
# Condition Context: Mycobacterium tuberculosis non-replicating, at 25 µM, stronger effect = higher value
About 1,300 (0.41%) of roughly 320,000 compounds were called active. Not shown: some 3% with an inconclusive outcome. A selection follows. Entries with a potency or affinity are not part of this list.
Measured Endpoint: inhibition (%)

Compound: CCOc1cc(C2C(C(=O)c3ccco3)=C(O)C(=O)N2CCc2ccccc2)ccc1O (centres undefined)
Units: %
Assay Result: 29.2
//
Compound: Fc1ccc(CSc2nnc(-c3ccncc3)o2)cc1
Units: %
Assay Result: 73.6
//
Compound: CN(CC(=O)Nc1cccc(F)c1)C(=O)c1ccccc1OCC(=O)Nc1cccc(C(F)(F)F)c1
Units: %
Assay Result: 1.32
//
Compound: O=C(Nc1ccc(Cl)cn1)c1cc2c(s1)-c1ccccc1OC2
Units: %
Assay Result: 27.1

====

A collection of compounds and their measured inhibition
# Assay Method Text: growth inhibition of non-replicating M. tuberculosis (AID 488890);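 also: plate controls were DMSO cells for no effect and high antibiotic wells for full effect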
# Condition Context: Mycobacterium tuberculosis non-replicating, at 25 µM, stronger effect = higher value
Out of some 320,000 compounds screened, about 1,300 (0.41%) were called active. Not shown: some 3% with an inconclusive outcome. Not all results are given here. Entries with a potency or affinity are not part of this list.

Compound: CN1/C(=C\C(=O)COC(=O)c2ccc(O)cc2)C(C)(C)c2ccccc21
inhibition / %: 57.9
--
Compound: O=C(NCCNC(=O)c1ccc(Br)o1)c1ccc(Br)o1
inhibition / %: -3.49
--
Compound: O=C(NCC1CCN(C(=O)c2ccc([N+](=O)[O-])cc2)CC1)c1ccc([N+](=O)[O-])cc1
inhibition / %: 4.24
--
Compound: Nc1cccc(C(=O)OCC(=O)NC2CCCc3ccccc32)c1 (stereo not drawn)
inhibition / %: 6.1
--
Compound: O=C(Nc1cccc(S(=O)(=O)N2CCCCCC2)c1)C1CCC1
inhibition / %: -14
--
Compound: CCn1ccnc1CN(C)C(=O)CCc1nnc(CCC2CCCCC2)o1
inhibition / %: 6.59
--
Compound: O=C(COc1ccccc1)N=C1SC2CS(=O)(=O)CC2N1c1cccc(F)c1 (stereo not drawn)
inhibition / %: 1.19
--
Compound: O=C(COc1ccc(F)cc1)N1CCCc2ccccc21
inhibition / %: 74.6

====

Each entry below lists one item and its recorded inhibition value.
# Assay Method Text: growth inhibition of non-replicating M. tuberculosis (AID 488890);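 also: plate controls were DMSO cells for no effect and high antibiotic wells for full effect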
# Condition Context: Mycobacterium tuberculosis non-replicating, at 25 µM, stronger effect = higher value
Hit rate of the full screen: of about 320,000 compounds, about 1,300 (0.41%) were called active. Not shown: some 3% with an inconclusive outcome. These entries were drawn from the full list. Measured potencies and affinities stand elsewhere.
Measured Endpoint: inhibition (%)

Compound: CCN(CC(=O)Nc1sc2c(c1C#N)CCC(C)C2)Cc1nc2ccccc2c(=O)[nH]1 (centres undefined)
Units: %
Assay Result: 5.89
//
Compound: COc1ccc(NC(=O)N2CCCC2C(=O)NC2CCCC2)cc1 (centres undefined)
Units: %
Assay Result: -20.1
//
Compound: O=C1CN(S(=O)(=O)c2ccccc2)CCN1
Units: %
Assay Result: 3.07
//
Compound: C[C@H](CO)N1C[C@H](C)[C@@H](CN(C)S(=O)(=O)c2ccccc2)Oc2ccc(NC(=O)C3CC3)cc2C1=O
Units: %
Assay Result: 6.81
//
Compound: CN=Cc1nc(-c2ccccc2)oc1O
Units: %
Assay Result: 10.9
//
Compound: Cc1ccc(CSc2nnc(-c3cccc4ccccc34)o2)cc1
Units: %
Assay Result: 14.4
//
Compound: Cc1[nH]n(-c2ccccc2)c(=O)c1C(=O)c1cccc(F)c1
Units: %
Assay Result: 69
//
Compound: CCOC(=O)c1cc(=O)c2c([N+](=O)[O-])ccc(OC)c2o1
Units: %
Assay Result: -14.2
//
Compound: O=C(N/N=C/c1ccc(OCc2ccccc2)cc1)c1ccco1
Units: %
Assay Result: 6.81
//
Compound: Cc1cc(O)c(NC(=O)c2cc([N+](=O)[O-])ccc2Cl)cc1C
Units: %
Assay Result: 32.1
//
Compound: CCCCOc1ccc(-c2nc(/C=N/c3nccs3)c(O)o2)cc1
Units: %
Assay Result: 62.2
//
Compound: O=C(Nc1ccc(Br)cc1F)c1sccc1-n1cccc1
Units: %
Assay Result: 0.35
//
Compound: CCOC(=O)[C@@H]1[C@H]2COc3ccc(Br)cc3[C@H]2N2C(=O)N(c3ccc(C(F)(F)F)cc3)C(=O)[C@]12C
Units: %
Assay Result: 37.9
//
Compound: C#CCSc1nnc(-c2sc3ccccc3c2Cl)o1
Units: %
Assay Result: 71.8
//
Compound: COc1ccc(/C=C2\SC(=S)N(CCCC(=O)Nc3ccc(O)cc3)C2=O)cc1
Units: %
Assay Result: 53.3
//
Compound: OCC[C@@H]1C[C@@H](O)[C@H](O)[C@@]2(OCCc3ccccc32)O1
Units: %
Assay Result: -1.04
//
Compound: CC1CCN(C(=O)C2CCC(CNc3c(N4CCCCC4)c(=O)c3=O)CC2)CC1 (centres undefined)
Units: %
Assay Result: 15.8
//
Compound: C=CCSc1nnc(-c2cccc3ccccc23)o1
Units: %
Assay Result: 5.5
//
Compound: Cc1nc(-c2cccc(S(=O)(=O)N3CCCCC3)c2)cs1
Units: %
Assay Result: 3.4

====

# Assay Method Text: growth inhibition of non-replicating M. tuberculosis (AID 488890);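 also: plate controls were DMSO cells for no effect and high antibiotic wells for full effect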
# Condition Context: Mycobacterium tuberculosis non-replicating, at 25 µM, stronger effect = higher value
Screen size: about 320,000 compounds; about 1,300 (0.41%) were called active. Inconclusive results (about 3%) are left out. The list is a sample of the results. Measured potencies and affinities stand elsewhere.
Measured Endpoint: inhibition (%)

Molecule: Cn1cnc([N+](=O)[O-])c1Cl
Assay Result: -10.2
//
Molecule: CC(NC(=O)CC1Sc2ccccc2NC1=O)c1ccccc1 (stereo unspecified)
Assay Result: 0.31
//
Molecule: C/C(=N\NC(=O)COc1ccc2ccccc2c1)c1cccs1
Assay Result: 1.6
//
Molecule: Cc1onc(-c2c(Cl)cccc2Cl)c1C(=O)O/N=C(\C#N)c1c(Cl)cccc1Cl
Assay Result: 4.59
//
Molecule: O=C1N=c2ccccc2=C1c1[nH]c(=S)[nH]c1O
Assay Result: 9.01
//
Molecule: Cc1ccc(S(=O)(=O)NCC(=O)NCC(=O)OCc2c(F)cccc2Cl)cc1
Assay Result: -16.7
//
Molecule: c1coc(Cn2c(-c3ccco3)nc3ccccc32)c1
Assay Result: 6.77
//
Molecule: Cc1cccc(CN2CCc3c([nH]c4ccccc34)C2C(C)(C)C)n1 (stereo unspecified)
Assay Result: 14.5
//
Molecule: CCOc1ccc(S(=O)(=O)N(C)c2ccc(OCC(=O)Nc3nccs3)cc2)cc1
Assay Result: 20.7
//
Molecule: C=CCn1c(O)c(C2=c3ccccc3=NC2=O)sc1=Nc1ccc(O)cc1
Assay Result: 30.7
//
Molecule: CC12CN3CC(C)(CN(C1)C3c1ccc([N+](=O)[O-])o1)C2=O (stereo unspecified)
Assay Result: 18.6
//
Molecule: COc1ccc(-c2cn3nc(C)c(C)nc3n2)cc1OC
Assay Result: -17
//
Molecule: COc1ccc(OCC(=O)Nc2ccncc2)cc1
Assay Result: 67
//
Molecule: COc1ccc(S(=O)(=O)N2CCC(C(=O)N3CCCCC3)CC2)cc1
Assay Result: -4.95
//
Molecule: CNC[C@H]1Oc2c(NS(=O)(=O)c3ccccc3)cccc2C(=O)N([C@H](C)CO)C[C@@H]1C
Assay Result: -8.41
//
Molecule: CCOc1ccc(CC(=O)Nc2nccs2)cc1
Assay Result: 3.37
